tested on: HT-29; assay: NCI tumour cell line growth inhibition, 48 h
Activity calls are given as the source filed them. Rule as the data show it: active = GI50 up to about 1.1 µM and inactive = higher.
parameter: GI50

>  <compound>
c1ccc2cc(-c3cc(-c4cc(-c5ccc6ccccc6c5)on4)no3)ccc2c1

>  <parameter>
GI50

>  <result>
> 100 µM (inactive)

$$$$
>  <compound>
O=[N+]([O-])c1ccc2sc(/C=N/c3ccccn3)cc2c1

>  <parameter>
GI50

>  <result>
> 100 µM (inactive)

$$$$
>  <compound>
COc1cc(C=O)ccc1Oc1nnnn1-c1ccccc1

>  <parameter>
GI50

>  <result>
86.7 µM (inactive)

$$$$
>  <compound>
O=c1[nH]cnc2[nH]nnc12

>  <parameter>
GI50

>  <result>
7.96 µM (inactive)

$$$$
>  <compound>
NC(=O)c1c(-c2ccccc2)c(-c2ccccc2)cc2c(=O)c3ccccc3[nH]c12

>  <parameter>
GI50

>  <result>
18.9 µM (inactive)

$$$$

QUERY: Would you kindly share the measured GI50 for Nc1c(-c2nc3ccccc3[nH]2)sc(=S)n1-c1ccccc1 ?
RESULT: 92.9 µM (inactive)

QUERY: Same again, this time with COc1ccc(/C(=N/O)C(c2ccc(OC)cc2)C2C(=O)Oc3ccccc32)cc1 (centres undefined)
RESULT: > 100 µM (inactive)

QUERY: Same again, this time with CCCCSCc1nc2nc(Cl)c(Cl)nc2[nH]1
RESULT: 30.8 µM (inactive)

QUERY: Same again, this time with Nc1nc(N)c(Cn2ccnc2)c(O)n1
RESULT: > 100 µM (inactive)

QUERY: Same again, this time with COc1cc([N+](=O)[O-])c(S(=O)(=O)O)cc1N
RESULT: > 100 µM (inactive)

QUERY: Same again, this time with CCOc1c(OC)cc(CNNc2nccs2)cc1OC
RESULT: > 100 µM (inactive)

###

system: MCF7; test: NCI tumour cell line growth inhibition, 48 h
The source made the active and inactive calls. No stated cut-off is given here; in the data, active = GI50 up to about 1.1 µM and inactive = higher.
Pick one: yes (1) = active, no (0) = inactive

Worked cases, answers included:
>  <compound>
Nc1ncnc2c1nnn2C1C=CC(CP(=O)(O)O)C1 (configuration not stated)

>  <qualitative_label>
no (0)

$$$$
>  <compound>
Cc1cn(C2CC(Br)C(COC(c3ccccc3)(c3ccccc3)c3ccccc3)O2)c(=O)[nH]c1=O (configuration not stated)

>  <qualitative_label>
no (0)

$$$$

QUERY: Check the results log: what was the call for C=C1C(=O)OC2/C=C(\C)CC(O)/C=C(/CO)CC(OC(=O)/C(C)=C/C)C12 (configuration not stated) ?
RESULT: no (0)

QUERY: Same again, this time with CC(O)c1c2c(cc3c1CC1(C3)Cc3cc4c(c(C(C)O)c3C1)CCC4)CCC2 (configuration not stated)
RESULT: no (0)

###

system: RPMI-8226; experiment: NCI tumour cell line growth inhibition, 48 h
Calls of active or inactive are those of the source. Rule as the data show it: active = GI50 up to about 1.1 µM and inactive = higher.
parameter: GI50

Examples with their reported GI50 follow.
>  <compound>
COc1cc2c(cc1NC(=O)c1ccccc1)c1c(n2S(=O)(=O)c2ccccc2)CCN(S(=O)(=O)c2ccccc2)C1

>  <parameter>
GI50

>  <result>
> 100 µM (inactive)

$$$$
>  <compound>
Cc1nc2c(=O)n(-c3ccccc3)c(=O)n(-c3ccccc3)c2o1

>  <parameter>
GI50

>  <result>
> 100 µM (inactive)

$$$$
>  <compound>
Nc1c(-c2nc3ccccc3[nH]2)sc(=S)n1-c1ccccc1

>  <parameter>
GI50

>  <result>
34 µM (inactive)

$$$$
>  <compound>
CC(=O)/C=C\C(=O)NNS(=O)(=O)c1ccc(C)cc1

>  <parameter>
GI50

>  <result>
> 100 µM (inactive)

$$$$
>  <compound>
CN(C)CCNC(=O)Cn1ccc(=O)c2c([N+](=O)[O-])cccc21

>  <parameter>
GI50

>  <result>
> 100 µM (inactive)

$$$$

QUERY: Would you kindly share the measured GI50 for CC(=O)O[C@H]1CN(S(=O)(=O)c2ccc(C)cc2)C[C@@H]1C1CCCCC1 ?
RESULT: 33.1 µM (inactive)

QUERY: Same again, this time with COC(=O)/C(=N/NC(C)(C)C)C(C(=O)OC)C(=O)C(=O)Nc1nc2ccc([N+](=O)[O-])cc2s1 (stereo unspecified)
RESULT: > 100 µM (inactive)

QUERY: Same again, this time with Nc1n[n+](-c2ccccc2)no1
RESULT: 26.6 µM (inactive)

QUERY: Same again, this time with Cc1nc(-c2cccnc2)sc1C(=O)/C=C/c1cccc([N+](=O)[O-])c1
RESULT: > 100 µM (inactive)

QUERY: Same again, this time with COc1ccc(Cc2ccc3nc(O)cc(C)c3c2)cc1S(=O)(=O)O
RESULT: > 100 µM (inactive)

QUERY: Same again, this time with CC(=O)/N=C1/N(/C=C2\C(=O)Oc3ccccc3C2=O)C(=O)/C(=C/c2ccccc2Cl)N1C
RESULT: > 100 µM (inactive)
